Target: native human B1 receptors (Homo sapiens)
Construct: which express native human B1 receptors after induction with human IL-1; Coriell Institute
Sequence (P46663 whole entry): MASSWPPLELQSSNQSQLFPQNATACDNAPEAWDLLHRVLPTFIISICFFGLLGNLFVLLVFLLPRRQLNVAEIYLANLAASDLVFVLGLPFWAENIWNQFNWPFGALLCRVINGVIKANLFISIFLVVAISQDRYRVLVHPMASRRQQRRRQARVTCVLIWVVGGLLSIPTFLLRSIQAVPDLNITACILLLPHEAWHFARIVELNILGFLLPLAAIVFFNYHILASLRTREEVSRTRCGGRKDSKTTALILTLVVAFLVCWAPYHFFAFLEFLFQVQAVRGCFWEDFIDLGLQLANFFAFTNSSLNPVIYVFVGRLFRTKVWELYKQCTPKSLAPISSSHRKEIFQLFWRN
Assay: Calcium flux assay (FLIPR) with IMR-90 human foetal lung fibroblasts after IL-1 induction
Conditions: IMR-90 fibroblasts induced with human IL-1; 0.1% BSA in assay buffer; agonist Lys-(Des-Arg)-Bradykinin at EC90; read-out: hB1 IC50 IMR90
endpoint_label: IC50 (nM)

Some compounds with known IC50 results, for comparison:
compound: CCC(F)(F)c1ccc(-c2ccc(NC(=O)C3CC3c3ccc(Cl)cc3)cc2C(=O)O)cn1 (racemic)
IC50 / nM: 529
//
compound: O=C(O)c1cc(NC(=O)C2CC2c2ccc(Cl)cc2)cc(F)c1-c1ccc(C(F)(F)F)nc1 (racemic)
IC50 / nM: 2330
//
compound: O=C(O)c1cc(NC(=O)C2CC2c2ccc(Cl)cc2)c(F)cc1-c1ccc(C(F)(F)F)nc1 (racemic)
IC50 / nM: 4730
//
compound: O=C(O)c1cc(NC(=O)C2CC2c2ccc(Cl)cc2)cc(F)c1-c1cnn(C2CCC2)c1 (racemic)
IC50 / nM: 66

I = CC(C)(C)c1cnn(-c2ccc(NC(=O)C3CC3c3ccc(Cl)cc3)cc2C(=O)O)c1 (racemic)
II = Cc1ccc(-c2ccc(NC(=O)C3CC3c3ccc(Cl)cc3)cc2C(=O)O)cn1 (racemic)
Exercise: From the items above, decide which of I and II has the lower IC50 reading. Give the label under which the chosen entry appears.
Solution: I
(I: 3390 nM, II: 12000 nM)

---

Target: human B1 receptor (Homo sapiens)
Construct: host or cells: CHO-K1
Sequence (P46663 whole entry): as above
Assay: Calcium flux assay (FLIPR) with recombinant CHO-K1 cells expressing human B1 receptor
Type: cell-based
Settings: absence of 0.1% BSA in assay buffer, agonist Lys-(Des-Arg)-Bradykinin, read-out: hB1 free IC50
Procedure: The potency to inhibit the Bradykinin B1 receptors was determined for the example compounds of this invention in a cell-based fluorescent calcium-mobilisation assay. […] The change of the intracellular Ca^2+ concentration is monitored with a fluorescent plate reader FLIPR (Molecular Devices). […] Peak fluorescence was used to determine the response to agonist obtained at each concentration of example compound by the following equation: […]
pIC50: −log10 of the molar value.
endpoint_label: pIC50

compound: CC(C)(C)c1cnn(-c2ccc(NC(=O)C3CC3c3ccc(Cl)cc3)cc2C(=O)O)c1 (racemic)
pIC50: 5.75

A = O=C(O)c1cc(NC(=O)C2CC2c2ccc(Cl)cc2)ccc1-c1cnn(C2CCC2)c1 (racemic) [Example 6]
B = O=C(O)c1cc(NC(=O)C2CC2c2ccc(Cl)cc2)cc(F)c1-c1ccc(C(F)(F)F)nc1 (racemic)
C = CC(F)(F)c1ccc(-c2ccc(NC(=O)C3CC3c3ccc(Cl)cc3)cc2C(=O)O)cn1 (racemic)
Exercise: Order by pIC50, ascending. Output the labels ranked as instructed.
Solution: C, B, A
